- Tested Target: T1, human HER3-huFc (human, UniProt P21860 20-643)
- T1 construct: also called huHER3; not shown: human Fc (huFc)
- Assay Details: ELISA, 0 days at 40 °C
// reported EC50 for each item listed
The figure you give is taken to be in µg/mL; do not add the unit.

# Binder, U, Readout Value
data = [
    ("humanized 3F8 antibody hu3F8-2 (antibody, human IgG1, kappa, V domains shown, also called Clone 2; clone-2) VH: QVQLQESGPGLVKPSETLSLTCTVSGYSITSAYYWNWIRQPFGKGLEWMGYISYDGRNNFNPSLKNRVTISRDTSKNQFSLKLSSVTAADTAVYYCARDGDYDYFDYWGQGTTVTVSS VL: DIQMTQSPSSLSASVGDRVTITCRASQDISNYLNWYQQKPGKAPKLLIYYTSILHSGVPSRFSGSGSGTDYTFTISSLQPEDIATYFCQQGDTLPPTFGGGTKLEIKR", "µg/mL", 0.0454),
    ("chimeric 3F8 antibody (antibody, human IgG1, V domains shown, also called ch3F8; Chimeric antibody) VH: DVQLQESGPGLVKPSQSLSLTCSVTGYSITSAYYWNWIRQFPGDKLEWMGYISYDGRNNFNPSLKNRISITRDTSKNQFFLKLNSVTSGDTATYYCARDGDYDYFDYWGQGTTLTVSS VL: DIQMTQTTSSLSASLGDRVTISCRASQDISNYLNWYQQKPDGTFKLLIYYTSILHSGVPSRFSGSGSGTDYSLTISNLEQEDIATYFCQQGDTLPPTFGAGTKLELK", "µg/mL", 0.0474),
]

Attention now turns to another entry.
Just so you know, measured EC50 for humanized 3F8 antibody hu3F8-1 (antibody, human IgG1, kappa, V domains shown, also called Clone 1; clone-1) VH: QVQLQESGPGLVKPSETLSLTCTVSGYSITSAYYWNWIRQPPGKGLEWIGYISYDGRNNFNPSLKNRVTISVDTSKNQFSLKLSSVTAADTAVYYCARDGDYDYFDYWGQGTTVTVSS VL: DIQMTQSPSSLSASVGDRVTITCRASQDISNYLNWYQQKPGKAPKLLIYYTSILHSGVPSRFSGSGSGTDYTFTISSLQPEDIATYFCQQGDTLPPTFGGGTKLEIKR came out at 0.0392
